These entries and their values trace back to ChEMBL document CHEMBL3616456.

ASSAY_COMMENT: Antioxidant activity assessed as cupric reducing antioxidant capacity measured after 1 hr
Format: physicochemical
Below, each entry is listed with its recorded A0.5.
MEASUREMENT_TYPE: A0.5

O=C(Nc1ccccc1)Nc1nc(-c2cc3cc(Br)ccc3o2)cs1    > 200 µM
O=C(Nc1cccc(Cl)c1)Nc1nc(-c2cc3cc(Br)ccc3o2)cs1    > 200 µM
O=C(Nc1cccc(F)c1)Nc1nc(-c2cc3cc(Br)ccc3o2)cs1    > 200 µM
O=C(Nc1cccc([N+](=O)[O-])c1)Nc1nc(-c2cc3cc(Br)ccc3o2)cs1    > 200 µM
O=c1c(O)c(-c2ccc(O)c(O)c2)oc2cc(O)cc(O)c12    1.45 µM
O=C(Nc1ccccc1)Nc1nc(-c2cc3ccccc3o2)cs1    132 µM
O=C(Nc1ccccc1)Nc1nc(-c2cc3cc([N+](=O)[O-])ccc3o2)cs1    > 200 µM
O=C(Nc1nc(-c2cc3cc(Br)ccc3o2)cs1)Nc1ccccc1[N+](=O)[O-]    122.22 µM
O=C(Nc1ccc(I)cc1)Nc1nc(-c2cc3ccccc3o2)cs1    133 µM
COc1ccc(NC(=O)Nc2nc(-c3cc4ccccc4o3)cs2)cc1    146.34 µM
O=C(Nc1ccc(Br)cc1)Nc1nc(-c2cc3cc(Br)ccc3o2)cs1    > 200 µM
O=C(Nc1ccc([N+](=O)[O-])cc1)Nc1nc(-c2cc3cc([N+](=O)[O-])ccc3o2)cs1    > 200 µM
COc1cccc(NC(=O)Nc2nc(-c3cc4ccccc4o3)cs2)c1    104.46 µM
O=C(Nc1ccc([N+](=O)[O-])cc1)Nc1nc(-c2cc3ccccc3o2)cs1    > 200 µM
O=C(Nc1nc(-c2cc3ccccc3o2)cs1)Nc1ccccc1F    102.43 µM
O=C(Nc1ccc(F)cc1)Nc1nc(-c2cc3cc([N+](=O)[O-])ccc3o2)cs1    > 200 µM
O=C(Nc1nc(-c2cc3cc(Br)ccc3o2)cs1)Nc1ccccc1F    > 200 µM
O=C(Nc1cccc(F)c1)Nc1nc(-c2cc3ccccc3o2)cs1    126.52 µM
O=C(Nc1ccc(Br)cc1)Nc1nc(-c2cc3cc([N+](=O)[O-])ccc3o2)cs1    > 200 µM
O=C(Nc1ccc(Br)cc1)Nc1nc(-c2cc3ccccc3o2)cs1    > 200 µM
O=C(Nc1ccc(Cl)cc1)Nc1nc(-c2cc3ccccc3o2)cs1    > 200 µM

###

ASSAY_COMMENT: Antioxidant activity assessed as cupric reducing antioxidant capacity measured after 1 hr
Format: physicochemical
MEASUREMENT_TYPE: A0.5

O=C(Nc1ccc(I)cc1)Nc1nc(-c2cc3cc([N+](=O)[O-])ccc3o2)cs1    > 200 µM
COc1ccccc1NC(=O)Nc1nc(-c2cc3ccccc3o2)cs1    > 200 µM
O=C(Nc1cccc(Cl)c1)Nc1nc(-c2cc3ccccc3o2)cs1    > 200 µM
O=C(Nc1ccc(F)cc1)Nc1nc(-c2cc3cc(Br)ccc3o2)cs1    146.78 µM
O=C(Nc1ccc(Cl)cc1)Nc1nc(-c2cc3cc(Br)ccc3o2)cs1    > 200 µM
O=C(Nc1ccc(Cl)cc1)Nc1nc(-c2cc3cc([N+](=O)[O-])ccc3o2)cs1    > 200 µM
COc1ccc(NC(=O)Nc2nc(-c3cc4cc([N+](=O)[O-])ccc4o3)cs2)cc1    > 200 µM
COc1ccc(NC(=O)Nc2nc(-c3cc4cc(Br)ccc4o3)cs2)cc1    > 200 µM
O=C(Nc1cccc([N+](=O)[O-])c1)Nc1nc(-c2cc3ccccc3o2)cs1    > 200 µM
Cc1ccc(NC(=O)Nc2nc(-c3cc4cc(Br)ccc4o3)cs2)cc1    > 200 µM
COc1ccccc1NC(=O)Nc1nc(-c2cc3cc(Br)ccc3o2)cs1    92.68 µM
O=C(Nc1ccc(I)cc1)Nc1nc(-c2cc3cc(Br)ccc3o2)cs1    > 200 µM
O=C(Nc1ccc(F)cc1)Nc1nc(-c2cc3ccccc3o2)cs1    110.31 µM
O=C(Nc1ccc([N+](=O)[O-])cc1)Nc1nc(-c2cc3cc(Br)ccc3o2)cs1    120.74 µM
COc1cccc(NC(=O)Nc2nc(-c3cc4cc(Br)ccc4o3)cs2)c1    > 200 µM
Cc1ccc(NC(=O)Nc2nc(-c3cc4ccccc4o3)cs2)cc1    192.91 µM
O=C(Nc1nc(-c2cc3ccccc3o2)cs1)Nc1ccccc1[N+](=O)[O-]    100.33 µM
O=C(Nc1ccc(Cl)c(Cl)c1)Nc1nc(-c2cc3ccccc3o2)cs1    > 200 µM
